Assay system: UniProtKB Q96IY4
Measurement description: Inhibition of TAFIa (hippuryl-Arg test)
Format: biochemical
Measurement setup: compound at 20 nM; TAFIa 2 nM, hippuryl-arginine 5 mM, 45 minutes; relative to control containing the carrier
Counter-ions that a name gives are not always drawn.
Reported endpoint: inhibition at 0.02 µM (%)
Number in %, nothing else.

Before answering, review these 5 worked examples.
NCCCC[C@@]1(C(=O)O)CN(Cc2ccc(F)cc2-c2ccncc2)CCP1(=O)O [Example 192]: 91
COc1ccc(-c2cc(O)ccc2CN2CCP(=O)(O)[C@](CCCCN)(C(=O)O)C2)cc1OC [Example 229]: 89
Cn1cncc1-c1cc(O)ccc1CN1CCP(=O)(O)[C@](CCCCN)(C(=O)O)C1 [Example 246, hydrobromide]: 86
COc1cccc(-c2cc(F)ccc2CN2CCP(=O)(O)[C@](CCCCN)(C(=O)O)C2)c1 [Example 185]: 85
Cn1cc(-c2cc(F)ccc2CN2CCP(=O)(O)[C@](CCCCN)(C(=O)O)C2)cn1 [Example 212]: 86

Task: Entry NCCCC[C@@]1(C(=O)O)CN(Cc2ccc(F)cc2-c2cccs2)CCP1(=O)O [Example 213] has what inhibition at 0.02 µM?
Result: 92

Task: Entry NCCCC[C@@]1(C(=O)O)CN(Cc2ccc(F)cc2-c2ccc(Cl)cc2)CCP1(=O)O [Example 198] has what inhibition at 0.02 µM?
Result: 91

Task: Entry NCCCC[C@@]1(C(=O)O)CN(Cc2ccc(F)cc2-c2ccc(O)cc2)CCP1(=O)O [Example 211] has what inhibition at 0.02 µM?
Result: 95

====

inhibition at 0.02 µM reference
Assay system: UniProt Q96IY4
Sequence (Q96IY4 115-423): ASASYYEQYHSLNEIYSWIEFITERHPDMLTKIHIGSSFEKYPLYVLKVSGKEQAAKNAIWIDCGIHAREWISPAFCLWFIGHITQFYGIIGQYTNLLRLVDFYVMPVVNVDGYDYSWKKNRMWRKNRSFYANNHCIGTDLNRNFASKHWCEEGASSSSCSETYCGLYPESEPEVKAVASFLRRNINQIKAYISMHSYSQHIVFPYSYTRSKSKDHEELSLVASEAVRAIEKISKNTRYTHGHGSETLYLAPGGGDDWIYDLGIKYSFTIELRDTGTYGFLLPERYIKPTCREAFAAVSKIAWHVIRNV
Measurement description: Inhibition of TAFIa (hippuryl-Arg test)
Assay type: biochemical
Measurement setup: compound at 20 nM; TAFIa 2 nM, hippuryl-arginine 5 mM, 45 minutes; relative to control containing the carrier

Before answering, review these 3 worked examples.
NCCCC[C@@]1(C(=O)O)CN(Cc2ccccc2-c2ccc(F)cc2)CCP1(=O)O: 78%
NCCCCC1(C(=O)O)CN(Cc2ccccc2-c2cc(Cl)ccc2Cl)CCP1(=O)O (stereo not shown): 54%
Cc1ccc(-c2cc(O)ccc2CN2CCP(=O)(O)[C@](CCCCN)(C(=O)O)C2)cc1: 83%

In the following, a different compound is considered.
Task: Entry Cc1ccc(-c2cc(F)ccc2CN2CCP(=O)(O)[C@](CCCCN)(C(=O)O)C2)cc1 has what inhibition at 0.02 µM?
Result: 73%

====

Assay system: TAFIa (Homo sapiens, UniProt Q96IY4)
Sequence (Q96IY4 115-423): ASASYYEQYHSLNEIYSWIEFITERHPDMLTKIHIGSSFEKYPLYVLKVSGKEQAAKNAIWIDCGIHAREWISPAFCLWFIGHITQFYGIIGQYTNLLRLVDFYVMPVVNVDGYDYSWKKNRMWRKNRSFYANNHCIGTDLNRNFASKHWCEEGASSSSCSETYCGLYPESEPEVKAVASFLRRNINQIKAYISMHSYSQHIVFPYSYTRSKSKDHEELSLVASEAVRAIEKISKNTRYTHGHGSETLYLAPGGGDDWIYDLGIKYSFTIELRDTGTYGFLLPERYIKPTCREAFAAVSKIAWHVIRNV
Measurement description: Inhibition of TAFIa (hippuryl-Arg test)
Type: biochemical
Measurement setup: compound at 10 nM; TAFIa 2 nM, hippuryl-arginine 5 mM, 45 minutes; relative to control containing the carrier
Structures can show the parent of a compound that is named as a salt.
Reported endpoint: inhibition at 0.01 µM (%)
Number in %, nothing else.

Before answering, review these 3 worked examples.
NCCCC[C@@]1(C(=O)O)CN(Cc2ccc(F)cc2-c2cnc3ccccn23)CCP1(=O)O: 83
Cn1cncc1-c1cc(O)ccc1CN1CCP(=O)(O)[C@](CCCCN)(C(=O)O)C1 [Example 246, hydrobromide]: 72
Cc1ccc(-c2cc(F)ccc2CN2CCP(=O)(O)[C@](CCCCN)(C(=O)O)C2)cc1: 54

Task: Entry NCCCCC1(C(=O)O)CN(Cc2ccccc2-c2ccccc2-c2ccccc2)CCP1(=O)O (centres unmarked) has what inhibition at 0.01 µM?
Result: 42

Task: Entry NCCCC[C@@]1(C(=O)O)CN(Cc2ccccc2-c2cccs2)CCP1(=O)O has what inhibition at 0.01 µM?
Result: 73

Task: Entry COc1cccc(-c2cc(F)ccc2CN2CCP(=O)(O)[C@](CCCCN)(C(=O)O)C2)n1 has what inhibition at 0.01 µM?
Result: 49

Task: Entry NCCCC[C@@]1(C(=O)O)CN(Cc2ccccc2-c2cccc(Cl)c2)CCP1(=O)O has what inhibition at 0.01 µM?
Result: 64

Task: Entry NCCCCC1(C(=O)O)CN(Cc2ccccc2-c2ccc(Cl)c(Cl)c2)CCP1(=O)O (centres unmarked) has what inhibition at 0.01 µM?
Result: 55
